# System: polyol oxidase derived from Penicillium sp. KU-1
# Run description: Substrate specificity of the partially purified polyol oxidase (peroxidase method)
# Type: biochemical
# Measurement conditions: substrate specificity, partially purified enzyme; relative to D-arabitol = 100
Measure name: Relative activity (%)

>  <Structure smiles string>
OC[C@@H](O)C(O)[C@H](O)CO

>  <Measure name>
Relative activity (%)

>  <Number>
100

$$$$
>  <Structure smiles string>
OC[C@@H](O)[C@H](O)[C@H](O)[C@H](O)CO

>  <Measure name>
Relative activity (%)

>  <Number>
0.3

$$$$
>  <Structure smiles string>
OC[C@@H](O)[C@@H](O)[C@@H](O)[C@@H](O)CO

>  <Measure name>
Relative activity (%)

>  <Number>
0.45

$$$$
>  <Structure smiles string>
OC[C@@H](O)[C@@H](O)[C@H](O)[C@@H](O)CO

>  <Measure name>
Relative activity (%)

>  <Number>
36.7

$$$$
>  <Structure smiles string>
OC[C@@H](O)[C@@H](O)[C@H](O)[C@H](O)CO

>  <Measure name>
Relative activity (%)

>  <Number>
79.0

$$$$
>  <Structure smiles string>
OC[C@@H](O)[C@@H](O)CO

>  <Measure name>
Relative activity (%)

>  <Number>
80.5

$$$$
>  <Structure smiles string>
OC[C@@H](O)[C@H](O)[C@@H](O)CO

>  <Measure name>
Relative activity (%)

>  <Number>
1.2

$$$$
>  <Structure smiles string>
OCC(O)CO

>  <Measure name>
Relative activity (%)

>  <Number>
0.18

$$$$
>  <Structure smiles string>
OC[C@H](O)[C@H](O)[C@H](O)[C@@H](O)CO

>  <Measure name>
Relative activity (%)

>  <Number>
0.3

$$$$
